tested on: foreskin cells in which senescence was induced by doxorubicin; experiment: CellTiter-Glo cell viability of doxorubicin-induced senescent foreskin cells (Examples 1-2, 10, 11, 13; Tables 4, 63, 65); format: cell-based, human; conditions: Homo sapiens, 72 h, 30 μM test compound; doxorubicin-induced senescent foreskin cells; CellTiter-Glo; 0 μM = 100; read-out: Survival (%)
Answer each item with its documented viability at 30 µM.
Your answer is read as %, so omit the unit and give the number.

So, COCC1(CO)C(=O)C2CCN1CC2 (stereo not drawn) [LX-701, Eprenetapopt, reference compound] ? Its viability at 30 µM was 27.4

Value of viability at 30 µM reported for the compound CCCCC/C=C\C/C=C\CCCCCCCC(=O)O [LX-2703, Linoleic acid] is 55.2

Quick note, viability at 30 µM for CC1(C)CC[C@]2(C(=O)O)CC[C@]3(C)C(=CC[C@@H]4[C@@]5(C)CC[C@H](O)C(C)(C)[C@@H]5CC[C@]43C)[C@@H]2C1 [LX-2003, Oleanolic acid] landed at 14

viability at 30 µM in this record for CCN(CC)C1CCN(Cc2cc(C#CCNc3ccccc3)cc(I)c2O)CC1 [LX-910] : 1.1

Sample Cc1c(O)ccc2c1OCC(c1ccc(O)cc1)C2c1ccc(O)cc1 (stereo not drawn) [LX-1605] ; viability at 30 µM observed: 11.3

Lab note: CCn1c2ccccc2c2cc(CNC)ccc21 [LX-901] gave viability at 30 µM of 15.8

Query COc1cc(OC)cc(N(CCNC(C)C)c2ccc3ncc(-c4cnn(C)c4)nc3c2)c1 [LX-1903, Erdafitinib, reference compound] yields viability at 30 µM of 11.8

Query C=C(CC)C(=O)c1ccc(OCC(=O)O)c(Cl)c1Cl [LX-2603, Ethacrynic acid, reference compound] yields viability at 30 µM of 52.6

// CC(C)Oc1ccc(-c2ccccc2)cc1-n1c(CN2CCN(C(=O)COc3ccc(Cl)cc3)CC2)nc2ccccc2c1=O [LX-1001] : viability at 30 µM value = 34.5

Value of measured viability at 30 µM for the entry CCn1c2ccc(CNC)cc2c2ccc(-c3cnoc3)cc21 [LX-903] : 5.7

Recorded result, O=C(NCc1ccncc1)C12CC3CC(C1)CC(c1ccc(Cl)cc1)(C3)C2 [LX-3106, Opaganib, reference compound] , viability at 30 µM: 59.7

The compound listed as CC1=CCC(c2cc(C(=O)C3CCC(c4ccc(C#N)cc4)CC3)c(C)cc2C2CCC2)=C1 (stereo not drawn) [LX-305] shows viability at 30 µM equal to 78

Per the record, C[C@H](N)C(=O)N1C[C@H](CCCB(O)O)[C@](N)(C(=O)O)C1 [LX-3107] has viability at 30 µM of 33.4

Data point: Cc1oncc1C(=O)Nc1ccc(C(F)(F)F)cc1 [LX-1603, Leflunomide, reference compound] ; viability at 30 µM = 84.3

So for CCNC(=O)c1c(O)c(I)c(-n2cccc2)c2sc(N(CC)CC)nc12 [LX-912] , the logged viability at 30 µM turned out to be 3.1

Entry C=C(C)[C@@H]1CC[C@]2(C(=O)O)CC[C@]3(C)[C@H](CC[C@@H]4[C@@]5(C)CC[C@H](O)C(C)(C)[C@@H]5CC[C@]43C)[C@@H]12 [LX-2005, Betulinic acid] — recorded viability at 30 µM = 73.8

viability at 30 µM reported for this compound CC1(C)C=C2[C@H]3CC[C@@H]4[C@@]5(C)CCC(=O)C(C)(C)[C@@H]5CC[C@@]4(C)[C@]3(C)CC[C@@]2(C(=O)O)CC1 [LX-2007, Moronic acid] : 83.9

Looking up C=C(CN(C)C)C(=O)c1ccc(C)cc1C [LX-923] , I see its viability at 30 µM listed as 19.5

Value of measured viability at 30 µM for the entry C[C@@H]1CC[C@H]2[C@@H](C)C(=O)O[C@@H]3O[C@@]4(C)CC[C@@H]1[C@]32OO4 [LX-506, Artemisinin, reference compound] : 78

viability at 30 µM measured on O=C(O)CCCCC(CCSCc1ccccc1)SCc1ccccc1 (stereo not drawn) [LX-3109, Devimistat, reference compound] = 74

Summary for this compound, CO[C@]1(C(=O)N[C@@H](C)c2ccc(-n3cc(F)cn3)nc2)CC[C@H](c2nc(C)cc(Nc3cc(C)[nH]n3)n2)CC1 [LX-1902, Pralsetinib, reference compound] : viability at 30 µM is 3.9

The value of viability at 30 µM measured for the compound O=C1C(O)=C([C@H]2CC[C@H](c3ccc(Cl)cc3)CC2)C(=O)c2ccccc21 [LX-2802, Atovaquone, reference compound] turned out to be 17.2

// viability at 30 µM lookup, compound = CCc1ccc(C(=O)C(C)CN2CCCC2)cc1 (stereo not drawn) [LX-1405, Inaperisone, reference compound] , result: 28.5

Record CCCCC/C=C\C/C=C\C/C=C\CCCCCCC(=O)O [LX-2705, Dihomogamma-linolenic acid] , field viability at 30 µM: 45.5

Summary for this compound, Cn1cc(-c2ccccc2)c(-n2cccc2)n1 [LX-907] : viability at 30 µM is 9.7

Value of measured viability at 30 µM for the entry CCc1ccc(C(=O)C(C)CN2CCCCC2)cc1 (stereo not drawn) [LX-1401, Eperisone, reference compound] : 9

For this compound ( CS(=O)(=O)CCNCc1ccc(-c2ccc3ncnc(Nc4ccc(OCc5cccc(F)c5)c(Cl)c4)c3c2)o1 [LX-1607, Lapatinib, reference compound] ), measured viability at 30 µM is 32.8

Value of viability at 30 µM reported for the compound O=S(=O)(NC1CCCCC1)c1ccc2c(c1)C(=NO)c1cc(S(=O)(=O)NC3CCCCC3)ccc1-2 [LX-602] is 16.1

Please fill in: viability at 30 µM reported for Nc1cccc2c1CN(C1CCC(=O)NC1=O)C2=O (stereo not drawn) [LX-3207, Lenalidomide, reference compound] = 17.9

Note to self: viability at 30 µM recorded for C=C(CN(C)C)C(=O)c1cc(C)ccc1C [LX-921] was 15.7
